Every entry's value here was drawn from ChEMBL document CHEMBL4689842.

Below, each entry is listed with its recorded Population Healthy Nuclei (%).
Tested on: HEK-293T
test_summary: Multiplex assay against HEK293T
Assay type: toxicity, cell-based
condition_label: human, 48 h, 10 µM, compound concentration 10 uM, replicate 1
Just the number please, in %, no unit attached.

Solved cases below.
CN1CCC[C@@H]1CCO[C@](C)(c1ccccc1)c1ccc(Cl)cc1.O=C(O)/C=C/C(=O)O [CLEMASTINE FUMARATE] ... 1
CCn1c(=O)c(-c2ccc(Cl)cc2Cl)cc2cnc(Nc3ccc(N4CCNCC4)c(F)c3)nc21 ... 3
CN1CCN(c2ccc(OC(F)(F)F)c(Nc3ncc4c(n3)-c3c(c(C(N)=O)nn3CCO)CC4)c2)CC1 [ONVANSERTIB] ... 29
Cl.N#Cc1ccc2[nH]cc(CCCCN3CCN(c4ccc5oc(C(N)=O)cc5c4)CC3)c2c1 [VILAZODONE HYDROCHLORIDE] ... 0
CNCc1ccccc1-c1csc([C@H](C)Nc2nc(C)nc3cc(OC)c(OC)cc23)c1 [BAY-294] ... 0

Task: // Population Healthy Nuclei (%) lookup, key: C[C@@]1(C(=O)Nc2ccc(F)nc2)CCCN1c1nc(Nc2cc(C3CC3)n[nH]2)c2cccn2n1 [BMS-754807]
Output: 7

Task: // Population Healthy Nuclei (%) lookup, key: Cc1nc(-c2ccc(-c3ccc(C(=O)N4CCc5cc6c(cc54)C4(CCN(C)CC4)CO6)cc3)c(C)c2)no1 [SB-224289]
Output: 10

Task: // Population Healthy Nuclei (%) lookup, key: Cc1[nH]c(/C=C2\C(=O)Nc3ccc(S(=O)(=O)N(C)c4cccc(Cl)c4)cc32)c(C)c1C(=O)N1CCN(C)CC1
Output: 30

Task: // Population Healthy Nuclei (%) lookup, key: C=CC(=O)Nc1ccc2ncnc(Nc3ccc(OCc4cccc(F)c4)c(Cl)c3)c2c1.Cc1ccc(S(=O)(=O)O)cc1
Output: 48

Task: // Population Healthy Nuclei (%) lookup, key: Cc1csc2c(N[C@@H](C)CN3CCN(S(=O)(=O)c4ccc(Cl)c(Cl)c4)CC3)ncnc12
Output: 4

Task: // Population Healthy Nuclei (%) lookup, key: COc1ncc(-c2ccc3nccc(-c4ccnnc4)c3c2)cc1NS(=O)(=O)c1ccc(F)cc1F [OMIPALISIB]
Output: 24

Task: // Population Healthy Nuclei (%) lookup, key: CN1CCCC(n2nc(Cc3ccc(Cl)cc3)c3ccccc3c2=O)CC1.Cl (centres undefined) [AZELASTINE HYDROCHLORIDE]
Output: 6

Task: // Population Healthy Nuclei (%) lookup, key: c1cn2cc(-c3ccc4cn[nH]c4c3)nc(Nc3ccc(N4CCOCC4)cc3)c2n1 [ENTOSPLETINIB]
Output: 18

Task: // Population Healthy Nuclei (%) lookup, key: COc1cc(-n2cnc3cc(-c4ccc(Cl)cc4)sc3c2=O)ccc1OCCN1CCCC1
Output: 0

Task: // Population Healthy Nuclei (%) lookup, key: CC[C@H](C)C(=O)O[C@H]1C[C@@H](C)C=C2C=C[C@H](C)[C@H](CC[C@@H]3C[C@@H](O)CC(=O)O3)[C@H]21 [LOVASTATIN]
Output: 37

Task: // Population Healthy Nuclei (%) lookup, key: COc1cc2nccc(Oc3ccc(NC(=O)Nc4cc(C)on4)c(Cl)c3)c2cc1OC.O
Output: 40

Task: // Population Healthy Nuclei (%) lookup, key: Cc1cc(C)cc(-c2cnc3cc(Cl)c(-c4cccc(O)c4)cc3c2OCCCN)c1
Output: 1

Task: // Population Healthy Nuclei (%) lookup, key: CN(C)C(=O)/C(C#N)=C/c1ccc(-c2nc3cnc4[nH]ccc4c3n2C2CCCCC2)o1
Output: 46

Task: // Population Healthy Nuclei (%) lookup, key: COc1cccc([C@@H](C)NCCCc2ccccc2Cl)c1.Cl [TECALCET HYDROCHLORIDE]
Output: 55

----------
Below, each entry is listed with its recorded Population Normal (%).
Tested on: HEK-293T
test_summary: Multiplex assay against HEK293T
Assay type: toxicity, cell-based
condition_label: human, 48 h, 10 µM, compound concentration 10 uM, replicate 2
Just the number please, in %, no unit attached.

Cc1csc2c(N[C@@H](C)CN3CCN(S(=O)(=O)c4ccc(Cl)c(Cl)c4)CC3)ncnc12 ... 86
C=CC(=O)Nc1ccc2ncnc(Nc3ccc(OCc4cccc(F)c4)c(Cl)c3)c2c1.Cc1ccc(S(=O)(=O)O)cc1 ... 89
CCn1c(=O)c(-c2ccc(Cl)cc2Cl)cc2cnc(Nc3ccc(N4CCNCC4)c(F)c3)nc21 ... 36
CCOCCn1cc(C(=O)Nc2ccc(-n3nc(-c4cccnc4)cc3C(F)(F)F)cn2)ccc1=O ... 95
CN1CCN(c2ccc(OC(F)(F)F)c(Nc3ncc4c(n3)-c3c(c(C(N)=O)nn3CCO)CC4)c2)CC1 ... 93

Task: // Population Normal (%) lookup, key: CC(C)(O)CNc1ncc(-c2ccnc(Nc3ccnc(Cl)c3)n2)c(CC2CC2)n1
Output: 83

Task: // Population Normal (%) lookup, key: CN1CCN(CCOc2cc(OC3CCOCC3)c3c(Nc4c(Cl)ccc5c4OCO5)ncnc3c2)CC1
Output: 88

Task: // Population Normal (%) lookup, key: CC(C)NCC(O)COc1ccc(CCOCC2CC2)cc1.Cl (stereo not drawn) [BETAXOLOL HYDROCHLORIDE]
Output: 95

Task: // Population Normal (%) lookup, key: Cc1cc(C)cc(-c2cnc3cc(Cl)c(-c4cccc(O)c4)cc3c2OCCCN)c1
Output: 92

Task: // Population Normal (%) lookup, key: C=CC(=O)Nc1cccc(C(=O)Nc2ccc(Nc3cc(-c4[nH]c(SC)nc4C)ccn3)cc2)c1
Output: 96

Task: // Population Normal (%) lookup, key: CN(C)C(=O)N[C@H]1CC[C@H](CCN2CCN(c3cccc(Cl)c3Cl)CC2)CC1.Cl [CARIPRAZINE HYDROCHLORIDE]
Output: 93

----------
Tested on: Fibroblast
test_summary: Multiplex assay against human fibroblast
Assay type: toxicity, cell-based
condition_label: 24 h, 10 µM, compound concentration 10 uM, replicate 2
readout_name: Population Apoptotic (%)
Just the number please, in %, no unit attached.

CCN(CC)CCCCNc1ncc2cc(-c3cc(OC)cc(OC)c3)c(NC(=O)NC(C)(C)C)nc2n1 ... 60
Cc1nc(-c2ccc(-c3ccc(C(=O)N4CCc5cc6c(cc54)C4(CCN(C)CC4)CO6)cc3)c(C)c2)no1 ... 76
CN1CCN(c2ccc(OC(F)(F)F)c(Nc3ncc4c(n3)-c3c(c(C(N)=O)nn3CCO)CC4)c2)CC1 ... 40
CN1CCCC(n2nc(Cc3ccc(Cl)cc3)c3ccccc3c2=O)CC1.Cl (stereo not drawn) [AZELASTINE HYDROCHLORIDE] ... 95
COc1ncc(-c2ccc3nccc(-c4ccnnc4)c3c2)cc1NS(=O)(=O)c1ccc(F)cc1F ... 80
CN(C)CC#Cc1ccc(OCCCc2sc(N3CCc4cccc(C(=O)Nc5nc6ccccc6s5)c4C3)nc2C(=O)O)c(F)c1 ... 81
C=CC(=O)Nc1cccc(C(=O)Nc2ccc(Nc3cc(-c4[nH]c(SC)nc4C)ccn3)cc2)c1 ... 40

Consider the record given below.
Task: // Population Apoptotic (%) lookup, key: CN1CCN(CCOc2cc(OC3CCOCC3)c3c(Nc4c(Cl)ccc5c4OCO5)ncnc3c2)CC1
Output: 85

----------
Tested on: Fibroblast
test_summary: Multiplex assay against human fibroblast
Format: toxicity, cell-based
condition_label: 12 h, 1 µM, compound concentration 1 uM, replicate 1
Below, each entry is listed with its recorded Population Mitotic Cells (%).

Solved cases below.
C=CC(=O)Nc1cccc(C(=O)Nc2ccc(Nc3cc(-c4[nH]c(SC)nc4C)ccn3)cc2)c1 ... 30%
C=CC(=O)Nc1ccc2ncnc(Nc3ccc(OCc4cccc(F)c4)c(Cl)c3)c2c1.Cc1ccc(S(=O)(=O)O)cc1 ... 46%
COc1cc(-n2cnc3cc(-c4ccc(Cl)cc4)sc3c2=O)ccc1OCCN1CCCC1 ... 47%

Task: // Population Mitotic Cells (%) lookup, key: O=C1NCN(c2ccccc2)C12CCN(CCCOc1ccc(F)cc1)CC2 [SPIRAMIDE]
Output: 24%

Task: // Population Mitotic Cells (%) lookup, key: CN1CCCC(n2nc(Cc3ccc(Cl)cc3)c3ccccc3c2=O)CC1.Cl (centres undefined) [AZELASTINE HYDROCHLORIDE]
Output: 52%

Task: // Population Mitotic Cells (%) lookup, key: CC[C@H](C)C(=O)O[C@H]1C[C@@H](C)C=C2C=C[C@H](C)[C@H](CC[C@@H]3C[C@@H](O)CC(=O)O3)[C@H]21
Output: 36%

Task: // Population Mitotic Cells (%) lookup, key: Cc1[nH]c(/C=C2\C(=O)Nc3ccc(S(=O)(=O)N(C)c4cccc(Cl)c4)cc32)c(C)c1C(=O)N1CCN(C)CC1
Output: 35%

Task: // Population Mitotic Cells (%) lookup, key: Cc1cc(C)cc(-c2cnc3cc(Cl)c(-c4cccc(O)c4)cc3c2OCCCN)c1
Output: 55%

Task: // Population Mitotic Cells (%) lookup, key: Cc1nc(-c2cn3c(n2)-c2ccc(-c4cnn(C(C)(C)C(N)=O)c4)cc2OCC3)n(C(C)C)n1
Output: 14%

Task: // Population Mitotic Cells (%) lookup, key: CCN(CC)CCCCNc1ncc2cc(-c3cc(OC)cc(OC)c3)c(NC(=O)NC(C)(C)C)nc2n1
Output: 38%

Task: // Population Mitotic Cells (%) lookup, key: NC(=O)Nc1cc(-c2cccc(F)c2)sc1C(=O)N[C@H]1CCCNC1
Output: 30%

Task: // Population Mitotic Cells (%) lookup, key: Cl.N#Cc1ccc2[nH]cc(CCCCN3CCN(c4ccc5oc(C(N)=O)cc5c4)CC3)c2c1 [VILAZODONE HYDROCHLORIDE]
Output: 25%

Task: // Population Mitotic Cells (%) lookup, key: C[C@@H](NCCCc1cccc(C(F)(F)F)c1)c1cccc2ccccc12.Cl [CINACALCET HYDROCHLORIDE]
Output: 40%

Task: // Population Mitotic Cells (%) lookup, key: CN(C)C(=O)/C(C#N)=C/c1ccc(-c2nc3cnc4[nH]ccc4c3n2C2CCCCC2)o1
Output: 32%

Task: // Population Mitotic Cells (%) lookup, key: CN1CCC[C@@H]1CCO[C@](C)(c1ccccc1)c1ccc(Cl)cc1.O=C(O)/C=C/C(=O)O [CLEMASTINE FUMARATE]
Output: 38%

Task: // Population Mitotic Cells (%) lookup, key: COc1cccc([C@@H](C)NCCCc2ccccc2Cl)c1.Cl [TECALCET HYDROCHLORIDE]
Output: 44%

Task: // Population Mitotic Cells (%) lookup, key: CN(C)C(=O)N[C@H]1CC[C@H](CCN2CCN(c3cccc(Cl)c3Cl)CC2)CC1.Cl [CARIPRAZINE HYDROCHLORIDE]
Output: 34%

Task: // Population Mitotic Cells (%) lookup, key: OC1(c2ccc(Cl)cc2)CCN(Cc2c[nH]c3ccccc23)CC1
Output: 41%

Task: // Population Mitotic Cells (%) lookup, key: CN(C)CC#Cc1ccc(OCCCc2sc(N3CCc4cccc(C(=O)Nc5nc6ccccc6s5)c4C3)nc2C(=O)O)c(F)c1
Output: 25%
